# measurementTarget: NLRP3 inflammasome (Homo sapiens (Human))
# Sequence (Q96P20 whole entry): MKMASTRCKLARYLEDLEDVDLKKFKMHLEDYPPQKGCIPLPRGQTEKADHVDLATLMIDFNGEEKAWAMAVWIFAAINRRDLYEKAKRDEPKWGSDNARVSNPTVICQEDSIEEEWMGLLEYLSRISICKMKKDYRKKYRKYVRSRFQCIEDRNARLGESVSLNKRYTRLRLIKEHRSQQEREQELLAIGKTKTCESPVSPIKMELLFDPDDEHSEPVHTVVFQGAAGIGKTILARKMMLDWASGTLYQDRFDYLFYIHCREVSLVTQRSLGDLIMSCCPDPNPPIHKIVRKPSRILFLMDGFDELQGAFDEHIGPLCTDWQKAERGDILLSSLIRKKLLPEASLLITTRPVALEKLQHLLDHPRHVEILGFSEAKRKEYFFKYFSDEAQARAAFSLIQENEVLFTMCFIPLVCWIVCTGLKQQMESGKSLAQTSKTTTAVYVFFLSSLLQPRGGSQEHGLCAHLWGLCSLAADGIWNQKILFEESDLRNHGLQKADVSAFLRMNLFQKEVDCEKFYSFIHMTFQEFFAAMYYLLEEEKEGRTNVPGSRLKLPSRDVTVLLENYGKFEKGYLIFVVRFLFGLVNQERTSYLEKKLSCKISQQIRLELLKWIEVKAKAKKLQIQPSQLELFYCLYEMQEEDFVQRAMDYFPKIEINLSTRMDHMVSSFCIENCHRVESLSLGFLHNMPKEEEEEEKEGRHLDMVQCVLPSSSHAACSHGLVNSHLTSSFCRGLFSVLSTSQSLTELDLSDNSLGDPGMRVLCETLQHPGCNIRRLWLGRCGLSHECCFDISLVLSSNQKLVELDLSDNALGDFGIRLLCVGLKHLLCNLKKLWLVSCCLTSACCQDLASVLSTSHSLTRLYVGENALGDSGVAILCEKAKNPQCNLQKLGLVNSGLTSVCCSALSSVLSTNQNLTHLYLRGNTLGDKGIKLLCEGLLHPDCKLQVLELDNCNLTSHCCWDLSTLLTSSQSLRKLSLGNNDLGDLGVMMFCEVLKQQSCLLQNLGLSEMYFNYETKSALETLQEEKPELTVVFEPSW
# assayName: Evaluation of NLRP3 inflammasome inhibitory activity (inhibition of IL-1β production in THP1-Null cells, LPS/Nigericin)
pIC50: −log10 of the molar value.
quantityKind: pIC50

Lab note: need pIC50 for O=C(NS(=O)(=O)N1CC2CC1CO2)c1coc(Nc2c3c(c(Cl)c4c2CCC4)CCC3)n1 (racemic) on NLRP3 inflammasome (Homo sapiens (Human)), anyone have it? 7.34

Record: CCS(=O)(=O)N1CCN(S(=O)(=O)NC(=O)c2coc(Nc3cc(C)ccc3C)n2)CC(OC)C1 (racemic) 6.72

Record: Cc1ccc(C(F)(F)F)cc1Nc1nc(C(=O)NS(=O)(=O)N2CCOCC2CO)co1 (racemic) 6.74

P: CCC1COCCN1S(=O)(=O)NC(=O)c1coc(Nc2cc(C(C)C)ccc2C)n1 (racemic)
Q: COC1CCCN(S(=O)(=O)NC(=O)c2coc(Nc3cc(C(F)(F)F)ccc3C)n2)CC1 (racemic)
R: CCCN1CCN(S(=O)(=O)NC(=O)c2coc(Nc3cc(C(F)(F)F)ccc3C)n2)CCC1=O
Put the items in sequence by pIC50, from largest down. Response field: labels, in requested order. Q, P, R
(Q: 7.40, P: 6.80, R: 6.22)
